Below, each entry is listed with its recorded inhibition in vivo at 50 mg/kg.
Test system: Rattus norvegicus
Assay: Antiinflammatory activity in rat assessed as inhibition of carrageenan-induced paw edema at 50 mg/kg, po measured at 360 mins after carrageenan challenge by plethysmographic analysis
Type: functional
Settings: 6 h

Below are worked cases with known answers.
CSc1ccc(C2Nc3ccccc3C(=O)N2c2ccccc2F)cc1 (centres undefined) = 41%
COc1ccc(N2C(=O)c3ccccc3NC2c2ccc(SC)cc2)cc1 (centres undefined) = 40%
CS(=O)(=O)c1ccc(C2Nc3ccccc3C(=O)N2c2ccc(F)cc2)cc1 (centres undefined) = 48%
CSc1ccc(C2Nc3ccccc3C(=O)N2c2ccc(Cl)cc2)cc1 (centres undefined) = 47%
CS(=O)(=O)c1ccc(C2Nc3ccccc3C(=O)N2c2ccccc2F)cc1 (centres undefined) = 44%
CS(=O)(=O)c1ccc(C2Nc3ccccc3C(=O)N2c2ccc(Cl)cc2)cc1 (centres undefined) = 51%

So, CSc1ccc(C2Nc3ccccc3C(=O)N2c2ccccc2)cc1 (centres undefined) ? Its inhibition in vivo at 50 mg/kg was 39%

So, COc1ccc(N2C(=O)c3ccccc3NC2c2ccc(S(C)(=O)=O)cc2)cc1 (centres undefined) ? Its inhibition in vivo at 50 mg/kg was 49%

So, CS(=O)(=O)c1ccc(C2Nc3ccccc3C(=O)N2c2ccccc2)cc1 (centres undefined) ? Its inhibition in vivo at 50 mg/kg was 40%

Hey, just so you know, these numbers are from ChEMBL document CHEMBL2203087.
